- System: B16-F10
- Test Method Notes: Photodynamic cytotoxicity against mouse B16-F10 cells assessed as inhibition of cell viability incubated for 3 hrs followed by photo-irradiation at 54 J/cm2 measured after 24 hrs by CCK8 assay
- Assay type: functional, cell-based
- Run Parameters: B16-F10, light or radiation study
Observed Property: IC50 (nM)
Express your answer in nM, writing the number without its unit.

[[record]]
compound_string = "COc1ccc2c(c1)CCc1c(-c3ccccc3)c3n(c1-2)[B-](F)(F)[N+]1=C(c2ccc(OCc4cn(CCCN5CCOCC5)nn4)cc2)C(I)=C(c2ccccc2)C1=N3"
measurement = 10.4

[[record]]
compound_string = "COc1ccc(C2=[N+]3C(=Nc4c(-c5ccccc5)c5c(n4[B-]3(F)F)-c3ccc(OC)cc3CC5)C(c3ccccc3)=C2I)cc1"
measurement = 317

[[record]]
compound_string = "COc1ccc2c(c1)CCc1c(-c3ccccc3)c3n(c1-2)[B-](F)(F)[N+]1=C(c2ccc(OCc4cn(CCCNC(=O)c5c(F)c(F)c(F)c(F)c5F)nn4)cc2)C(I)=C(c2ccccc2)C1=N3"
measurement = 413

[[record]]
compound_string = "Br.COc1ccc2c(c1)CCc1c(-c3ccccc3)c3n(c1-2)[B-](F)(F)[N+]1=C(c2ccc(OCC(=O)NCCC[P+](c4ccccc4)(c4ccccc4)c4ccccc4)cc2)C(I)=C(c2ccccc2)C1=N3"
measurement = 33.7


Could you now look at the following compound, please?
Data request: Recall and state the measured IC50 for `Br.COc1ccc2c(c1)CCc1c(-c3ccccc3)c3n(c1-2)[B-](F)(F)[N+]1=C(c2ccc(OCc4cn(CCC[P+](c5ccccc5)(c5ccccc5)c5ccccc5)nn4)cc2)C(I)=C(c2ccccc2)C1=N3` .
Data returned: 21

====

Catalogue of compounds with associated IC50 at 27 h
- Test Method Notes: Cytotoxicity against human HeLa cells assessed as inhibition of cell viability under dark condition incubated for 27 hrs by CCK8 assay
- Assay type: toxicity, cell-based

Reference set (3 entries):
[[record]]
compound = "COc1ccc2c(c1)CCc1c(-c3ccccc3)c3n(c1-2)[B-](F)(F)[N+]1=C(c2ccc(OCC(=O)NCCCN4CCOCC4)cc2)C(I)=C(c2ccccc2)C1=N3"
measurement = "> 50 µM"

[[record]]
compound = "COc1ccc2c(c1)CCc1c(-c3ccccc3)c3n(c1-2)[B-](F)(F)[N+]1=C(c2ccc(OCc4cn(CCCN5CCOCC5)nn4)cc2)C(I)=C(c2ccccc2)C1=N3"
measurement = "25.4 µM"

[[record]]
compound = "COc1ccc(C2=[N+]3C(=Nc4c(-c5ccccc5)c5c(n4[B-]3(F)F)-c3ccc(OC)cc3CC5)C(c3ccccc3)=C2I)cc1"
measurement = "> 50 µM"


Could you now look at the following compound, please?
Data request: Recall and state the measured IC50 at 27 h for `Br.COc1ccc2c(c1)CCc1c(-c3ccccc3)c3n(c1-2)[B-](F)(F)[N+]1=C(c2ccc(OCc4cn(CCC[P+](c5ccccc5)(c5ccccc5)c5ccccc5)nn4)cc2)C(I)=C(c2ccccc2)C1=N3` .
Data returned: 10.6 µM

====

- Test Method Notes: Cytotoxicity against mouse B16-F10 cells assessed as inhibition of cell viability under dark condition incubated for 27 hrs by CCK8 assay
- Type: toxicity, cell-based
Observed Property: IC50 at 27 h

Reference set (3 entries):
[[record]]
compound = "COc1ccc2c(c1)CCc1c(-c3ccccc3)c3n(c1-2)[B-](F)(F)[N+]1=C(c2ccc(OCc4cn(CCCN5CCOCC5)nn4)cc2)C(I)=C(c2ccccc2)C1=N3"
observed_property = "IC50 at 27 h"
measurement = "> 50 µM"

[[record]]
compound = "COc1ccc2c(c1)CCc1c(-c3ccccc3)c3n(c1-2)[B-](F)(F)[N+]1=C(c2ccc(OCC(=O)NCCCN4CCOCC4)cc2)C(I)=C(c2ccccc2)C1=N3"
observed_property = "IC50 at 27 h"
measurement = "> 50 µM"

[[record]]
compound = "C=Cc1c(C)c2cc3nc(c(CC(=O)O)c4[nH]c(cc5nc(cc1[nH]2)C(C)=C5CC)c(C)c4C(=O)O)[C@@H](CCC(=O)O)[C@@H]3C [CHLORIN E6]"
observed_property = "IC50 at 27 h"
measurement = "> 50 µM"


Data request: Recall and state the measured IC50 at 27 h for `COc1ccc2c(c1)CCc1c(-c3ccccc3)c3n(c1-2)[B-](F)(F)[N+]1=C(c2ccc(OCc4cn(CCCNC(=O)c5c(F)c(F)c(F)c(F)c5F)nn4)cc2)C(I)=C(c2ccccc2)C1=N3` .
Data returned: > 50 µM

Data request: Recall and state the measured IC50 at 27 h for `COc1ccc2c(c1)CCc1c(-c3ccccc3)c3n(c1-2)[B-](F)(F)[N+]1=C(c2ccc(OCC(=O)NCCCNC(=O)c4c(F)c(F)c(F)c(F)c4F)cc2)C(I)=C(c2ccccc2)C1=N3` .
Data returned: > 50 µM

Data request: Recall and state the measured IC50 at 27 h for `Br.COc1ccc2c(c1)CCc1c(-c3ccccc3)c3n(c1-2)[B-](F)(F)[N+]1=C(c2ccc(OCc4cn(CCC[P+](c5ccccc5)(c5ccccc5)c5ccccc5)nn4)cc2)C(I)=C(c2ccccc2)C1=N3` .
Data returned: 12.8 µM

Data request: Recall and state the measured IC50 at 27 h for `Br.COc1ccc2c(c1)CCc1c(-c3ccccc3)c3n(c1-2)[B-](F)(F)[N+]1=C(c2ccc(OCC(=O)NCCC[P+](c4ccccc4)(c4ccccc4)c4ccccc4)cc2)C(I)=C(c2ccccc2)C1=N3` .
Data returned: 44.4 µM

Data request: Recall and state the measured IC50 at 27 h for `COc1ccc(C2=[N+]3C(=Nc4c(-c5ccccc5)c5c(n4[B-]3(F)F)-c3ccc(OC)cc3CC5)C(c3ccccc3)=C2I)cc1` .
Data returned: > 50 µM

From: ChEMBL document CHEMBL5338790
